IC50 for assorted compounds
Target: K-Ras G12C (Homo sapiens (Human), UniProt P01116+P62937, G12C)
Sequence (P01116-2 other isoform, or with tags, fused parts or gaps G12C): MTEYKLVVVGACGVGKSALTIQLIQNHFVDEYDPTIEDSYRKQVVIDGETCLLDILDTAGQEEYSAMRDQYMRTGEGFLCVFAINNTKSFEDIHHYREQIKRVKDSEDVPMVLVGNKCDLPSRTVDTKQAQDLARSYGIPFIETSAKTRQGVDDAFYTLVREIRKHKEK
Sequence (P62937 whole entry): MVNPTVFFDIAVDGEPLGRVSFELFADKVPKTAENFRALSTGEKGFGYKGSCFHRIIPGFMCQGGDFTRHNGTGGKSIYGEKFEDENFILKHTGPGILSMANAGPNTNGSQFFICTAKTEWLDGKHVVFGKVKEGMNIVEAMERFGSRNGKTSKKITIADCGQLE
Assay: Ras-Raf (BRAF RBD) disruption / FRET / MOA assay, KRAS G12C
Format: biochemical
Settings: KRAS G12C; Ras-Raf disruption/FRET/MOA assay; read-out: IC50* KRAS G12C FRET data
quantity measured: IC50

>>> obs_value("C=CC(=O)N1CC2(C1)CN(C(=O)N(C)[C@H](C(=O)N[C@H]1Cc3nc(cs3)-c3ccc4c(c3)c(c(-c3cccnc3[C@H](C)OC)n4CC)CC(C)(C)COC(=O)[C@@H]3CCCN(N3)C1=O)C(C)C)C2 (atropisomer, axis not shown)")
"100 to 1000 nM"
>>> obs_value("C=CC(=O)N1CC[C@H](C(=O)N(C)[C@H](C(=O)N[C@H]2Cc3cccc(c3)-c3ccc4c(c3)c(c(-c3cc(CN(C)C)cnc3[C@H](C)OC)n4CC)CC(C)(C)COC(=O)[C@@H]3CCCN(N3)C2=O)C(C)C)C1 (atropisomer, axis not shown) [Example A522]")
"100 to 1000 nM"
>>> obs_value("CC#CC(=O)N1CC[C@H](C(=O)N(C)[C@H](C(=O)N[C@H]2Cc3cccc(c3)-c3ccc4c(c3)c(c(-c3cccnc3[C@H](C)OC)n4C#N)CC(C)(C)COC(=O)[C@@H]3CCCN(N3)C2=O)C(C)C)C1 (atropisomer, axis not shown)")
"> 10000 nM"
>>> obs_value("CCn1c(-c2cccnc2[C@H](C)OC)c2c3cc(ccc31)-c1cccc(c1)CC(NC(=O)[C@H](C(C)C)N1CC[C@]3(CCN(C(=O)C#C[C@@H]4COCCN4C4COC4)C3)C1=O)C(=O)N1CCC[C@H](N1)C(=O)OCC(C)(C)C2 (some centres unmarked)")
"100 to 1000 nM"
>>> obs_value("C=CC(=O)N1CCO[C@H]2CN(C(=O)N(C)[C@H](C(=O)N[C@H]3Cc4nc(cs4)-c4ccc5c(c4)c(c(-c4cccnc4[C@H](C)OC)n5CC)CC(C)(C)COC(=O)[C@@H]4CCCN(N4)C3=O)C(C)C)C[C@H]21 (atropisomer, axis not shown)")
"10 to 100 nM"
>>> obs_value("CCn1c(-c2cccnc2[C@H](C)OC)c2c3cc(ccc31)-c1csc(n1)C[C@H](NC(=O)[C@H](C(C)C)N(C)C(=O)[C@H]1CCN(C(=O)C#CC(C)(C)N(C)C)C1)C(=O)N1CCC[C@H](N1)C(=O)OCC(C)(C)C2 (atropisomer, axis not shown)")
"< 10 nM"
>>> obs_value("C=CC(=O)N1CC[C@H](C(=O)N(C)[C@H](C(=O)N[C@H]2Cc3cc(O)cc(c3)-c3ccc4nc(-c5cccnc5COC)c(n4c3)CC(C)(C)COC(=O)[C@@H]3CCCN(N3)C2=O)C(C)C)C1")
"> 10000 nM"
>>> obs_value("C=CC(=O)N1CCOC2(CCN(C(=O)N(C)[C@H](C(=O)N[C@H]3Cc4cc(CF)cc(c4)-c4ccc5c(c4)c(c(-c4cccnc4[C@H](C)OC)n5CC(F)(F)F)CC(C)(C)COC(=O)[C@@H]4CCCN(N4)C3=O)C(C)C)CC2)C1 (atropisomer, axis not shown)")
"100 to 1000 nM"
